Data credit: patent US20250206836A1

# TGT: T1, human CD36 (on HEK 293 or SCC25 cells) (human, UniProt P16671 2-472)
# T1 construct: Overexpressed transiently or stably on HEK 293 cells, or stably on SCC25 cells; also called huCD36
# PROTOCOL_SUMMARY: FACS, SCC25 cells stably overexpressing human CD36
Reported EC50 by item:
Expressed in nM, but write only the number.

BINDER	U	EC50
6G04 (antibody, human IgG1, V domains shown, Chimeric: mouse variable regions on human IgG1 LALA (L234A/L235A); also called 06G04; 006G04) VH: QVQLQQSGAELVMPGASVKMSCKASGYTFTDYWMHWVKQRPGQGLEWIGSIDTSDSYTTYSQKFKGKATLTVDESSSTAYMELARLTSEDSAIYYCVRGEDYEGTWFAYWGQGTLVTVSA VL: ETTVTQSPASLSVATGEKVTIRCITSTDIDDDMNWYQQKPGEPPKLLISEGNTLRPGVPSRFSSSGYGTDFVFTIENTLSEDVADYYCLQSDNMPLTFGAGTKLELK	nM	0.56

Could you share which EC50 value was measured for 19G04 (antibody, human IgG1, V domains shown, Chimeric: mouse variable regions on human IgG1 LALA (L234A/L235A); also called 019G04) VH: EVQLQQSGPELVKPGASVKISCETSGHTFTEYTMHWVKQSHGKSLEWIGGIYPNNGATKYNQKFKGKATLTVDKSSSTAYMELRSLTSEDSAVYYCARDRYDVWFAYWGQGTLVTVSA VL: ETTVTQSPASLSMAIGEKVTIRCITSTDIDDDMNWYQQKPGEPPKLLISEGNTLRPGVPSRFSSSGYGTDFIFTIENMLSEDVADYYCLQSDNLPLTFGAGTKLELK ?
0.75

Could you share which EC50 value was measured for 13G04 (antibody, human IgG1, V domains shown, Chimeric: mouse variable regions on human IgG1 LALA (L234A/L235A); also called 013G04) VH: QVQLQQSGAELVRPGASVKLSCKASGYTFTSYWMNWVKQRPGQGLEWIGMIDPSDNETHYNQMFKDKATLTVDKSSSTAYMQLSSLTSEDSAVYYCARSDYGNGYSFYLDVWGAGTTVTVSS VL: DIVLTQSPASLAVSLGQRATISCRASESVDSYGNSFMHWYQQKPGQPPKLLIYRASNLESGIPARFSGSGSRTDFTLTINPVEADDVATYYCQQSNEDPWTFGGGTKLEIK ?
0.26
